The measured values listed here are drawn from PubChem BioAssay (NCATS).

experiment: Quantitative High-Throughput drug screen in 47 multiple myeloma cell lines against the NCATS MIPE library collection: KMS26_JCRB cell viability assay (AID 1918975); conditions: KMS26 myeloma cells viability, CellTiter-Glo ATP, 48 h; series mostly up to 45.8 µM; further: nearly all actives have a fitted effect of over 45% in size; further: potency means the concentration at half of the fitted maximal effect
Results filed as inconclusive are left out. Calls of active or inactive are those of the source. The call rests on the fitted dose curve; in most records, active means well fitted cell-killing curve with a large enough effect; inconclusive means small, poorly fitted or top-dose-only effect, or effect the other way; inactive means no such curve, though single readings can be large or run the other way.
QUANTITY_KIND: Potency

>>> result("CNC(=O)c1ccc(N2C(=S)N(c3ccc(C#N)c(C(F)(F)F)c3)C(=O)C2(C)C)cc1F")
"inactive"
>>> result("COc1nc(-c2ccc3c(c2)OCO3)n(-c2ccc(NC(=O)CSc3ccccc3)cc2)n1")
"11.8 µM (active)"
>>> result("NS(=O)(=O)c1cc2c(cc1Cl)NC=NS2(=O)=O")
"inactive"
>>> result("Cn1cnc2c(F)c(Nc3ccc(Br)cc3Cl)c(C(=O)NOCCO)cc21")
"7.43 µM (active)"
>>> result("Cc1cc(Nc2nc(N[C@@H](C)c3ncc(F)cn3)ncc2Cl)n[nH]1")
"26.4 µM (active)"

Ask | Returns the measured Potency for the input compound. Input: COc1ccc2c3n(c(=NC(=O)c4cccnc4)nc2c1OC)CCN3
Reply | 11.8 µM (active)

Ask | Returns the measured Potency for the input compound. Input: Cn1c(=O)c(F)c(Nc2ccc(I)cc2F)c2c(=O)n(C[C@@H](O)CO)cnc21
Reply | inactive

====

Give Potency for every item shown.
experiment: Cell Proliferation Assay Versus the ED40515 IL2 Independent ATL cell lines (AID 1053194); conditions: ED40515 IL2-independent ATL cells
Calls of active or inactive are those of the source. Calls follow the shape of the full dose curve.

Ask | Returns the measured Potency for the input compound. Input: COc1nc(-c2ccc3c(c2)OCO3)n(-c2ccc(NC(=O)CSc3ccccc3)cc2)n1
Reply | 23.5 µM (active)

Ask | Returns the measured Potency for the input compound. Input: O=C(c1cc(Cc2n[nH]c(=O)c3ccccc23)ccc1F)N1CCN(C(=O)C2CC2)CC1
Reply | 16.6 µM (active)

Ask | Returns the measured Potency for the input compound. Input: c1ccc(-c2nn3c(c2-c2ccnc4cc(OCCN5CCOCC5)ccc24)CCC3)nc1
Reply | 26.4 µM (active)

Ask | Returns the measured Potency for the input compound. Input: CCN(CC)CCCC(C)Nc1nc(C)cc(Nc2ccc3nc(C)cc(N)c3c2)n1 (stereo not drawn)
Reply | 26.4 µM (active)

Ask | Returns the measured Potency for the input compound. Input: CC[C@@H](C)[C@H](NC(=O)[C@H](CC1CCCCC1)NC(=O)c1ccno1)C(=O)N1CCC2(CCc3ccccc32)CC1
Reply | 10.5 µM (active)

Ask | Returns the measured Potency for the input compound. Input: Oc1cccc(-c2nc(N3CCOCC3)c3oc4ncccc4c3n2)c1
Reply | 1.32 µM (active)

Ask | Returns the measured Potency for the input compound. Input: CCn1c(-c2nonc2N)nc2c(C#CC(C)(C)O)ncc(OC[C@H]3CCCNC3)c21
Reply | 33.2 µM (active)

Ask | Returns the measured Potency for the input compound. Input: CCC(C)n1ncn(-c2ccc(N3CCN(c4ccc(OC[C@H]5CO[C@](Cn6cncn6)(c6ccc(Cl)cc6Cl)O5)cc4)CC3)cc2)c1=O (stereo partly drawn)
Reply | 10.5 µM (active)

Ask | Returns the measured Potency for the input compound. Input: Cc1cc2c(F)c(Oc3ncnn4cc(OC[C@@H](C)O)c(C)c34)ccc2[nH]1
Reply | 1.05 µM (active)

Ask | Returns the measured Potency for the input compound. Input: CC(C)c1onc(-c2c(Cl)cccc2Cl)c1COc1ccc(/C=C/c2cccc(C(=O)O)c2)c(Cl)c1
Reply | 33.2 µM (active)

Ask | Returns the measured Potency for the input compound. Input: CCOC(=O)N[C@@H]1CC[C@@H]2[C@@H](C1)C[C@H]1C(=O)O[C@H](C)[C@H]1[C@@H]2C=Cc1ccc(-c2cccc(F)c2)cn1
Reply | 16.6 µM (active)

Ask | Returns the measured Potency for the input compound. Input: Cc1cc([C@@H](C)Nc2ccccc2C(=O)O)c2nc(N3CCOCC3)cc(=O)n2c1
Reply | 20.9 µM (active)

Ask | Returns the measured Potency for the input compound. Input: CCCCCCCc1ccc(CCc2cccc(O)c2C(=O)O)cc1
Reply | 16.6 µM (active)

Ask | Returns the measured Potency for the input compound. Input: Cc1oncc1C(=O)Nc1ccc(C(F)(F)F)cc1
Reply | 14.8 µM (active)

Ask | Returns the measured Potency for the input compound. Input: C[C@]1(c2nc3c(C(N)=O)cccc3[nH]2)CCCN1
Reply | 16.6 µM (active)

Ask | Returns the measured Potency for the input compound. Input: COc1ccccc1-c1cccc(-c2c(O)c3cc(C#N)c(Cl)cc3[nH]c2=O)c1
Reply | 16.6 µM (active)

Ask | Returns the measured Potency for the input compound. Input: NC(=O)c1ccc(-c2nc(-c3ccc4c(c3)OCCO4)c(-c3ccccn3)[nH]2)cc1
Reply | 20.9 µM (active)

Ask | Returns the measured Potency for the input compound. Input: COc1ccc(C2=N[C@H](c3ccc(Cl)cc3)[C@H](c3ccc(Cl)cc3)N2C(=O)N2CCNC(=O)C2)c(OC(C)C)c1
Reply | 33.2 µM (active)

Ask | Returns the measured Potency for the input compound. Input: COc1ccc2c3n(c(=NC(=O)c4cccnc4)nc2c1OC)CCN3
Reply | 23.5 µM (active)

Ask | Returns the measured Potency for the input compound. Input: CNC(=O)c1ccc(C)c(-n2c(C)cc(OCc3ccc(F)cc3F)c(Br)c2=O)c1
Reply | 26.4 µM (active)

Ask | Returns the measured Potency for the input compound. Input: CC1(C)CNc2cc(NC(=O)c3cccnc3NCc3ccncc3)ccc21
Reply | 33.2 µM (active)

Ask | Returns the measured Potency for the input compound. Input: COc1cc(F)c(F)c(Nc2ccc(I)cc2F)c1NS(=O)(=O)C1(C[C@H](O)CO)CC1
Reply | 26.4 µM (active)

Ask | Returns the measured Potency for the input compound. Input: Cc1csc(NC(=O)c2sc3nc4c(c(C(F)(F)F)c3c2N)CCC4)n1
Reply | 26.4 µM (active)
